# credit: patent US11186577B2

biological target: human Oxytocin Receptor (hOTR) (Homo sapiens (Human)); assay: Oxytocin receptor antagonist assay (oxytocin-evoked calcium, FLIPR, CHEM-1-hOTR cells); format: cell-based; settings: read-out: OT IC50
Sequence (P30559 whole entry): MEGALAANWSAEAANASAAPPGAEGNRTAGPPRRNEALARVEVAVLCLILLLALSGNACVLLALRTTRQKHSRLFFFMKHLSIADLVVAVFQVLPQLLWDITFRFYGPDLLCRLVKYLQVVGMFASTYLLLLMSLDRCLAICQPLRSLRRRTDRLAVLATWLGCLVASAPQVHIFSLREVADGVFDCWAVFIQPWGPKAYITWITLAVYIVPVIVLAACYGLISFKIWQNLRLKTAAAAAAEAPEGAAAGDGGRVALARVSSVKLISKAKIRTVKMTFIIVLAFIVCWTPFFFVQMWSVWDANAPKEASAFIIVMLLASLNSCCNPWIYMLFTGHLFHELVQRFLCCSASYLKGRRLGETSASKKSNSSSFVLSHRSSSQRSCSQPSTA
Here, each record is paired with measured IC50 data.
quantity: IC50

{"compound": "CC1c2nnc(C3CC4(C3)CN(c3ncccn3)C4)n2-c2ccc(Cl)cc2CN1C(=O)OC1CC1 (stereo not shown) [compound 171]", "value": "> 1000 nM"}
{"compound": "CC1c2nnc(C3CC4(C3)CN(c3ncccn3)C4)n2-c2ccc(Cl)cc2CN1C(=O)OC1CC1 (single isomer, unassigned) [Cpd 171A]", "value": "> 1000 nM"}
{"compound": "O=C(C1CCC1)N1Cc2cc(Cl)ccc2-n2c(nnc2C2CC3(C2)CN(c2ccc(F)cn2)C3)C1", "value": "> 1000 nM"}
{"compound": "CCC(=O)N1Cc2cc(Cl)ccc2-n2c(nnc2C2CC3(C2)CN(c2cccnn2)C3)C1", "value": "> 1000 nM"}
{"compound": "CC1c2nnc(C3CC4(C3)CN(c3ccc(F)cn3)C4)n2-c2ccc(Cl)cc2CN1C(=O)C(C)(C)F (single isomer, unassigned) [Cpd 178A]", "value": "100 to 500 nM"}
{"compound": "Clc1ccc2c(c1)CN(C1CC1)Cc1nnc(C3CC4(C3)CN(c3ccccn3)C4)n1-2", "value": "500 to 1000 nM"}
{"compound": "CC(=O)N1Cc2cc(Cl)ccc2-n2c(nnc2C2CC3(C2)CN(c2ccc(F)cn2)C3)C1", "value": "> 1000 nM"}

###

# IC50 per entry
biological target: human Oxytocin Receptor (hOTR) (Homo sapiens (Human)); test: Oxytocin receptor antagonist assay (oxytocin-evoked calcium, FLIPR, CHEM-1-hOTR cells); type: cell-based; settings: read-out: OT IC50

{"molecule": "FCCN1Cc2cc(Cl)ccc2-n2c(nnc2C2CC3(C2)CN(c2ccccn2)C3)C1", "assay target": "human Oxytocin Receptor (hOTR) (Homo sapiens (Human))", "IC50": "> 1 µM"}
{"molecule": "O=C(C(F)F)N1Cc2cc(Cl)ccc2-n2c(nnc2C2CC3(C2)CN(C(=O)C2(F)CC2)C3)C1", "assay target": "human Oxytocin Receptor (hOTR) (Homo sapiens (Human))", "IC50": "> 1 µM"}
{"molecule": "CN1Cc2cc(Cl)ccc2-n2c(nnc2C2CC3(C2)CN(c2cncc(F)c2)C3)C1", "assay target": "human Oxytocin Receptor (hOTR) (Homo sapiens (Human))", "IC50": "> 1 µM"}
{"molecule": "COC(=O)N1Cc2cc(Cl)ccc2-n2c(nnc2C2CC3(C2)CN(c2ncc(F)cn2)C3)C1", "assay target": "human Oxytocin Receptor (hOTR) (Homo sapiens (Human))", "IC50": "> 1 µM"}
{"molecule": "FC(F)CN1Cc2cc(Cl)ccc2-n2c(nnc2C2CC3(C2)CN(c2ccccn2)C3)C1", "assay target": "human Oxytocin Receptor (hOTR) (Homo sapiens (Human))", "IC50": "0.5 to 1 µM"}
{"molecule": "CC1c2nnc(C3CC4(C3)CN(c3ccccn3)C4)n2-c2ccc(Cl)cc2CN1C(=O)C1(F)CC1 (single isomer, unassigned) [Cpd 181A]", "assay target": "human Oxytocin Receptor (hOTR) (Homo sapiens (Human))", "IC50": "0.1 to 0.5 µM"}
{"molecule": "COC(=O)N1Cc2cc(Cl)ccc2-n2c(C3CC4(C3)CN(c3ncccn3)C4)nnc2C1C (stereo not shown) [compound 166]", "assay target": "human Oxytocin Receptor (hOTR) (Homo sapiens (Human))", "IC50": "> 1 µM"}
